These data points were gathered from patent US10100114B2.

Target: T1, human Trop-2-hFc (Homo sapiens, UniProt P09758)
T1 construct: Monomeric Trop-2 extracellular domain prepared from papain digestion of Trop-2-Fc fusion protein
T1 sequence (P09758 27-274 limits assumed): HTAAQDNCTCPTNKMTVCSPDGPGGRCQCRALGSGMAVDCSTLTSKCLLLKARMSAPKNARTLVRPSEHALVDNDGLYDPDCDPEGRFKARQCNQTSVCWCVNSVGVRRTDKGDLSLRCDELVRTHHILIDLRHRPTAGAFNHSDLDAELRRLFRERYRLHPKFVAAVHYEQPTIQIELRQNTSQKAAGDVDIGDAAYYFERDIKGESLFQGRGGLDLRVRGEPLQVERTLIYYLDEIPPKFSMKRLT
Assay: Biacore SPR affinity of chimeric and humanized 7E6 Fab, human Trop-2
Type: binding
Conditions: recombinant Fab fragments injected over captured human Trop-2-hFc
Excerpt: The human Trop-2-hFc or cynomolgus monkey Trop-2-hFc proteins were captured on the CM5 EDA chip 37 sensor surface coupled with anti-human Fc.
measure.name: kd (s⁻¹)
// units = s⁻¹; emit number, no label

Query: What value of measured kd is listed for h7E6_L: humanized anti-Trop-2 antibody comprising SEQ ID NOs: 4 and 6 (antibody, V domains shown) VH: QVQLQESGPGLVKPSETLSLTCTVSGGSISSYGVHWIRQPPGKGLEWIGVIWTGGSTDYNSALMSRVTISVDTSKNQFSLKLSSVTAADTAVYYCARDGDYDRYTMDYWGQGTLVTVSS VL: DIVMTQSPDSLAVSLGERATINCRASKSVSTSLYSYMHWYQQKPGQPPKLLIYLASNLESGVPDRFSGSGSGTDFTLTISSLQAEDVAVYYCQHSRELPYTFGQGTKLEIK ?
Response: 0.00015
